- Test System: UniProtKB Q6QLK5
- Sequence (Q6QLK5 whole entry, the tested form may be a part): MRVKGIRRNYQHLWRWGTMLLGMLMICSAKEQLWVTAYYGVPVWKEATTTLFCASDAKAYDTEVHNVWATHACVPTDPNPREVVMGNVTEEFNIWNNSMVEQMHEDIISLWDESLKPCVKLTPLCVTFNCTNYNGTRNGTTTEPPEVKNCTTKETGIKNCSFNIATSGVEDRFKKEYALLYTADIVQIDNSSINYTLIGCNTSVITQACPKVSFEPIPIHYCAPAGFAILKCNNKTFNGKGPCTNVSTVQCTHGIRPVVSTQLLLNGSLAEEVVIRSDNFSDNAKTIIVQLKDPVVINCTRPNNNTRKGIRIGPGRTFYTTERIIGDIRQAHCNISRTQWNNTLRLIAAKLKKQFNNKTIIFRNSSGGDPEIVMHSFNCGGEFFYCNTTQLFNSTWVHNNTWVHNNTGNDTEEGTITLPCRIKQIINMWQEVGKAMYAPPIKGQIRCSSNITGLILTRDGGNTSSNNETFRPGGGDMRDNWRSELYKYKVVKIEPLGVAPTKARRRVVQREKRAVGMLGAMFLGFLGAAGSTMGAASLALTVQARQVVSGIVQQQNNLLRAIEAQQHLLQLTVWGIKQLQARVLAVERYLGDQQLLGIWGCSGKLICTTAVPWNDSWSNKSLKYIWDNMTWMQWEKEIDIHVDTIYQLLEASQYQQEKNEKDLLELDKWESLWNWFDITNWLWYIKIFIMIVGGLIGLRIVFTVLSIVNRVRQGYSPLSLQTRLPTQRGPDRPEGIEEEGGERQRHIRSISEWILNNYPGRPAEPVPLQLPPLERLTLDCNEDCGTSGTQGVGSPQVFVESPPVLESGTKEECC
- Assay Method Text: inhibitors of HIV fusion peptide binding, primary screen, biochemical, uHTS, fluorescence dequenching (AID 1986)
Calls of active or inactive are those of the source. Cut-off read from the data, not from the text of the source: actives have a measured IC50 and inactives only a lower limit.
Some molecules, each annotated with its measured IC50.

COc1cccc(C2C3=C(N=c4s/c(=C\c5ccc(OCC(=O)O)cc5)c(=O)n42)c2ccccc2CC3)c1 (stereo not given) ... 18.6 µM (active)
Cc1cc(N2C(=O)C(O)=C(C(=O)c3cc4ccccc4o3)C2c2ccc(Cl)cc2)no1 (stereo not given) ... 15.9 µM (active)
CCOC(=O)c1sc(N2C(=O)C(O)=C(C(=O)c3ccc(C)o3)C2c2cccc([N+](=O)[O-])c2)nc1C (stereo not given) ... 17.6 µM (active)
O=C(O)c1ccc(-c2ccc(/C=C3\NC(=O)N(Cc4ccc(Cl)cc4)C3=O)o2)cc1Cl ... 10.7 µM (active)

Let us move to another entry and its IC50.
The observed IC50 for Cc1cc(N2C(=O)C(O)=C(C(=O)c3ccc(C)o3)C2c2cccc(Oc3ccccc3)c2)no1 (stereo not given) when tested with UniProtKB Q6QLK5 stands at 24.1 µM (active)
